- EXPERIMENTAL SYSTEM: Recombinant human PDK1 enzyme (aa 52-556) (Homo sapiens (Human), UniProt O15530)
- Sequence (O15530 52-556): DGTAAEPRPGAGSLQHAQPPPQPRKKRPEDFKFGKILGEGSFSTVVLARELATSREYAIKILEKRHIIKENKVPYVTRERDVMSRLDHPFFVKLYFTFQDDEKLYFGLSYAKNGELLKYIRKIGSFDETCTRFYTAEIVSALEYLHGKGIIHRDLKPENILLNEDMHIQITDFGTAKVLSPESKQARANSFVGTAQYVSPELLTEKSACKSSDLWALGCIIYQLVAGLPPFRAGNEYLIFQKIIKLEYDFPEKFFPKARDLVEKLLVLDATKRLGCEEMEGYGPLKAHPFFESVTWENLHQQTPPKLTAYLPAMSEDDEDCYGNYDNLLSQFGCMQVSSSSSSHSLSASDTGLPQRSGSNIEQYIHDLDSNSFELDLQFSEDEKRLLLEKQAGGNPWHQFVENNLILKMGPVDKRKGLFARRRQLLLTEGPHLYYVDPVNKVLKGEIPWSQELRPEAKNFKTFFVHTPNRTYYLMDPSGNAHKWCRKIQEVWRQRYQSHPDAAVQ
- TEST PROTOCOL: PDK1 kinase assay
- Type: biochemical
- EXPERIMENTAL CONDITIONS: in vitro kinase assay, His6-PDK1 (aa 52-556), PDKtide, P33-ATP
Recorded log10 IC50 by entry
PROPERTY MEASURED: log10 IC50 (log10 of the value in nM)

CCOc1ncnc2ccc(C#CCNC(=O)c3cncn(Cc4ccc(F)c(F)c4)c3=O)cc12 [I-7]    1.97
COc1ccc(CCNc2ncnc3ccc(C#CCNC(=O)c4cncn(Cc5ccc(F)c(F)c5)c4=O)cc23)cc1OC [II-8]    1.96
CN1CCC(NC(=O)c2cnc3ccc(C#CCNC(=O)c4cncn(Cc5ccc(F)c(F)c5)c4=O)cc3c2)CC1 [II-74]    1.08
CN1CCC(Oc2ccnc3ccc(C#CCNC(=O)c4cncn(Cc5ccc(F)c(F)c5)c4=O)cc23)CC1 [I-111]    1.46
CN(C)CCCN(C)c1ccnc2ccc(C#CCNC(=O)c3cncn(Cc4ccc(F)c(F)c4)c3=O)cc12 [I-89]    1.36
CN1CCCC(Nc2cnc3ccc(C#CCNC(=O)c4cncn(Cc5ccc(F)c(F)c5)c4=O)cc3n2)C1 (stereo not drawn) [I-21]    2.17
COCCN1CCC(Nc2cnc3ccc(C#CCNC(=O)c4cccn([C@@H](C)c5ccc(F)c(F)c5)c4=O)cc3c2)CC1 [I-78]    0.95
O=C(NCC#Cc1ccc2nccc(OCC3CCOCC3)c2c1)c1cccn(C(CO)c2ccc(F)c(F)c2)c1=O (stereo not drawn) [I-125.16]    1.04
CN(CCCO)c1ncnc2ccc(C#CCNC(=O)c3cccn(Cc4ccc(F)c(F)c4)c3=O)cc12 [II-34]    1.77
